// data source = patent US20180186742A1

# pest or weed control at 100 ppm listing for each entry below
# Test system: Alternaria solani
# assay procedure: Tomato early blight (ALTESO), disease control on tomato plants
# Assay type: in vivo
# conditions: 1DP test at 100 ppm, read-out: ALTESO disease control rating

# example entries with known answers
- compound: "COc1ccnc2c(=O)n([C@@H](C)C(=O)O[C@@H](C)[C@H](c3ccc(F)cc3C)C(C)C)c(=O)oc12"
  study system: "Alternaria solani"
  pest or weed control at 100 ppm: "< 80%"
- compound: "COCCC(=O)Oc1c(OC)ccnc1C(=O)N[C@@H](C)C(=O)O[C@@H](C)[C@H](c1ccc(F)cc1C)C(C)C"
  study system: "Alternaria solani"
  pest or weed control at 100 ppm: "< 80%"
- compound: "COc1ccnc(C(=O)N[C@@H](C)C(=O)O[C@@H](C)[C@H](c2ccccc2C)C(C)C)c1OC(C)=O"
  study system: "Alternaria solani"
  pest or weed control at 100 ppm: "< 80%"
- compound: "COc1cc[n+]([O-])c(C(=O)N[C@@H](C)C(=O)O[C@@H](C)[C@H](c2ccc(F)cc2C)C(C)C)c1O"
  study system: "Alternaria solani"
  pest or weed control at 100 ppm: "< 0%"
- compound: "CCC(=O)Oc1c(OC)ccnc1C(=O)N[C@@H](C)C(=O)O[C@@H](C)[C@H](c1ccc(F)cc1C)C(C)C"
  study system: "Alternaria solani"
  pest or weed control at 100 ppm: "< 80%"

compound COc1ccnc(C(=O)N[C@@H](C)C(=O)O[C@@H](C)[C@H](c2ccc(F)cc2C)C(C)C)c1OC(=O)C(C)C , pest or weed control at 100 ppm observed: < 80%

compound CCC(C)C(=O)Oc1c(OC)ccnc1C(=O)N[C@@H](C)C(=O)O[C@@H](C)[C@H](c1ccc(F)cc1C)C(C)C (stereo partly shown) , pest or weed control at 100 ppm observed: > 80%

###

# pest or weed control at 100 ppm listing for each entry below
# Tested on: Zymoseptoria tritici
# assay procedure: Leaf blotch of wheat (SEPTTR), disease control on wheat seedlings
# Assay type: in vivo
# conditions: 24 h, high volume application at 100 ppm, 1 Day Protectant, read-out: SEPTTR disease control, 1DP, HV activity

- compound: "COc1ccnc(C(=S)N[C@@H](C)C(=O)O[C@@H](C)[C@H](c2ccc(F)cc2C)C(C)C)c1O [Compound 136]"
  study system: "Zymoseptoria tritici"
  pest or weed control at 100 ppm: "> 80%"
- compound: "COc1ccnc(C(=O)N[C@@H](C)C(=O)O[C@H](C)[C@H](c2ccc(F)cc2C)C2CCCC2)c1O [Compound 128]"
  study system: "Zymoseptoria tritici"
  pest or weed control at 100 ppm: "< 0%"
- compound: "COc1ccnc(C(=O)N[C@@H](C)C(=O)O[C@@H](C)[C@H](c2ccc(C)cc2C)C(C)C)c1O [Compound 325]"
  study system: "Zymoseptoria tritici"
  pest or weed control at 100 ppm: "> 80%"
- compound: "COc1ccnc(C(=O)N[C@@H](C)C(=O)O[C@@H](C)[C@H](c2ccccc2OC(C)C)C(C)C)c1O [Compound 337]"
  study system: "Zymoseptoria tritici"
  pest or weed control at 100 ppm: "< 80%"

compound COc1ccnc(C(=O)N[C@@H](C)C(=O)O[C@@H](C)[C@H](c2ccc(F)cc2C)C2CCCC2)c1O [Compound 122] , pest or weed control at 100 ppm observed: > 80%

compound COc1cc(F)ccc1[C@H](C1CCCCC1)[C@H](C)OC(=O)[C@H](C)NC(=O)c1nccc(OC)c1O [Compound 143] , pest or weed control at 100 ppm observed: > 80%

compound COc1ccnc(C(=O)N[C@@H](C)C(=O)O[C@@H](C)[C@H](c2cccc(F)c2C)C(C)C)c1O [Compound 322] , pest or weed control at 100 ppm observed: < 80%

compound COc1ccnc(C(=O)NCC(=O)O[C@@H](C)[C@H](c2ccc(F)cc2C)C(C)C)c1O [Compound 317] , pest or weed control at 100 ppm observed: < 80%

compound COc1ccnc(C(=O)N[C@@H](C)C(=O)O[C@@H](C)[C@H](c2c(F)cc(F)cc2F)C(C)C)c1O [Compound 341] , pest or weed control at 100 ppm observed: > 80%

compound COc1ccnc(C(=O)N[C@@H](C)C(=O)O[C@@H](C)[C@H](c2ccccc2C)C(C)C)c1O [Compound 327] , pest or weed control at 100 ppm observed: < 80%

###

# pest or weed control at 100 ppm listing for each entry below
# Test system: Zymoseptoria tritici
# assay procedure: Leaf blotch of wheat (SEPTTR), disease control on wheat seedlings
# Format: in vivo
# conditions: 72 h, high volume application at 100 ppm, 3 Day Curative, read-out: SEPTTR disease control, 3DC, HV activity

- compound: "COc1ccnc(C(=O)NCC(=O)O[C@@H](C)[C@H](c2ccc(F)cc2C)C(C)C)c1O [Compound 317]"
  pest or weed control at 100 ppm: "< 80%"
- compound: "COc1ccnc(C(=O)N[C@@H](C)C(=O)O[C@@H](C)[C@@H](c2ccc(F)cc2C)C2CCCC2)c1O [Compound 118]"
  pest or weed control at 100 ppm: "< 80%"
- compound: "COc1ccnc(C(=O)N[C@@H](C)C(=O)O[C@@H](C)[C@H](c2cc(F)ccc2C)C(C)C)c1O [Compound 324]"
  pest or weed control at 100 ppm: "< 80%"

Log: Zymoseptoria tritici, compound COc1ccnc(C(=O)N[C@@H](C)C(=O)O[C@@H](C)[C@@H](c2ccc(C)cc2F)C(C)C)c1O [Compound 332] , pest or weed control at 100 ppm = < 80%

Log: Zymoseptoria tritici, compound COc1ccnc(C(=O)N[C@@H](C)C(=O)O[C@@H](C)[C@@H](c2ccccc2)C2CCCC2)c1O [Compound 106] , pest or weed control at 100 ppm = < 0%

Log: Zymoseptoria tritici, compound CCC(C)[C@@H](c1ccc(F)cc1C)[C@H](C)OC(=O)[C@H](C)NC(=O)c1nccc(OC)c1O (stereo partly drawn) [Compound 126] , pest or weed control at 100 ppm = > 80%

Log: Zymoseptoria tritici, compound COc1ccnc(C(=O)N[C@@H](C)C(=O)O[C@@H](C)[C@H](c2c(F)cc(F)cc2F)C(C)C)c1O [Compound 341] , pest or weed control at 100 ppm = > 80%

Log: Zymoseptoria tritici, compound COc1ccnc(C(=O)N[C@@H](C)C(=O)O[C@@H](C)[C@H](c2cccc(C)c2C)C(C)C)c1O [Compound 326] , pest or weed control at 100 ppm = > 80%

Log: Zymoseptoria tritici, compound COc1ccnc(C(=O)N[C@@H](C)C(=O)O[C@@H](C)[C@@H](c2ccc(F)cc2C)C2CCC2)c1O [Compound 121] , pest or weed control at 100 ppm = > 80%

###

# Test system: Puccinia triticina
# assay procedure: Wheat brown rust (PUCCRT), disease control on wheat seedlings
# Assay type: in vivo
# conditions: 72 h, low volume application at 121.5 g/H, 3 Day Curative, read-out: PUCCRT disease control, 3DC, LV activity
measured parameter: pest or weed control at 121.5 g/ha

- molecule: "COc1ccnc(C(=O)N[C@@H](C)C(=O)O[C@@H](C)[C@H](c2ccc(F)cc2C)C2CCC2)c1OCOC(C)=O"
  observed value: "> 80%"
- molecule: "COc1ccnc(C(=O)N[C@@H](C)C(=O)O[C@@H](C)[C@H](c2ccc(F)cc2)C2CC2)c1OC(C)=O"
  observed value: "> 80%"
- molecule: "COc1ccnc(C(=O)N[C@@H](C)C(=O)OC(C)C(c2ccc(F)cc2)C(C)C)c1OC(C)=O (stereo partly shown)"
  observed value: "> 80%"
- molecule: "CC[C@H](C)[C@H](NC(=O)c1nccc(OC)c1OC(=O)CCOC)C(=O)O[C@@H](C)[C@H](c1ccc(F)cc1C)C(C)C"
  observed value: "< 80%"
- molecule: "CCC(=O)Oc1c(OC)ccnc1C(=O)N[C@@H](C)C(=O)O[C@@H](C)[C@H](c1ccc(F)cc1C)C(C)C"
  observed value: "> 80%"

molecule COc1cc(F)ccc1[C@H](C1CCCC1)[C@H](C)OC(=O)[C@H](C)NC(=O)c1nccc(OC)c1OCOC(C)=O , pest or weed control at 121.5 g/ha observed: < 80%

molecule COc1ccnc(C(=O)N[C@@H](C)C(=O)O[C@H](C)[C@H](c2ccc(F)cc2C)C2CCCCC2)c1OC(C)=O , pest or weed control at 121.5 g/ha observed: < 80%

###

# System: Puccinia triticina
# assay procedure: Wheat brown rust (PUCCRT), disease control on wheat seedlings
# Format: in vivo
# conditions: 72 h, low volume application at 121.5 g/H, 3 Day Curative, wheat brown rust, read-out: PUCCRT 3DC disease control, LV activity
# pest or weed control at 121.5 g/ha listing for each entry below

# example entries with known answers
- smiles str: "COc1ccnc(C(=O)N[C@@H](C)C(=O)O[C@@H](C)[C@H](c2cccc(C)c2)C(C)C)c1OC(C)=O"
  study system: "Puccinia triticina"
  pest or weed control at 121.5 g/ha: "< 80%"
- smiles str: "COc1ccnc(C(=O)N[C@@H](C)C(=O)O[C@@H](C)[C@@H](c2ccc(Cl)cc2Cl)C(C)C)c1OC(C)=O"
  study system: "Puccinia triticina"
  pest or weed control at 121.5 g/ha: "< 0%"
- smiles str: "COc1ccnc(C(=O)N[C@@H](C)C(=O)O[C@@H](C)[C@H](c2ccc(Cl)cc2Cl)C(C)C)c1OC(C)=O"
  study system: "Puccinia triticina"
  pest or weed control at 121.5 g/ha: "> 80%"
- smiles str: "COc1ccnc(C(=O)N[C@@H](C)C(=O)O[C@@H](C)[C@H](c2ccccc2C)C(C)C)c1OC(C)=O"
  study system: "Puccinia triticina"
  pest or weed control at 121.5 g/ha: "< 80%"
- smiles str: "COc1ccc([C@H](C(C)C)[C@H](C)OC(=O)[C@H](C)NC(=O)c2nccc(OC)c2OC(C)=O)cc1"
  study system: "Puccinia triticina"
  pest or weed control at 121.5 g/ha: "< 80%"

Query molecule follows.
molecule COc1ccc([C@H](C(C)C)[C@H](C)OC(=O)[C@H](C)NC(=O)c2nccc(OC)c2OCOC(C)=O)cc1 , pest or weed control at 121.5 g/ha observed: > 80%
